biological target: KRas G12C (Homo sapiens, UniProt P01116, C118S/C51S/C80L/G12C); assay: KRas G12C Modification Assay (LCMS detection of covalent adduct); type: binding; conditions: normalized percent of control; tested at 5 μM concentration for 3 hours
measurement label: POC

Problem: Provide one value: measured POC of C=CC(=O)N1CCN(c2nc(OC[C@@H]3CCCN3C)nc3c2CCN(c2nncc4ccccc24)C3)C[C@@H]1CC#N
Result: C (“C”>50% POC)

Problem: Provide one value: measured POC of C=CC(=O)N1CCN(c2nc(OCC3CCN(CCO)C3)nc3c2CCN(c2cc(O)cc4ccccc24)C3)CC1 (stereo not drawn)
Result: C (“C”>50% POC)

Problem: Provide one value: measured POC of CN1CCC[C@H]1COc1nc2c(c(N3CCN(C(=O)/C=C/CN4CCOCC4)[C@@H](CC#N)C3)n1)CCN(c1cccc3cccc(Cl)c13)C2
Result: C (“C”>50% POC)

src = patent US10125134B2
